The compounds listed here are annotated with their pH value in water.
experiment: pH value of the dried carboxylic acid salt in water; assay type: physicochemical; conditions: dried salt cake dissolved in water
Number, no unit, nothing else.

# compound, value.observed
data = [
    ("O=C([O-])c1c(Cl)ccc2cc(Cl)cnc12.[Na+] [quinclorac-sodium]", 10),
    ("O=C(O)c1nc(Cl)ccc1Cl.OCCNCCO [clopyralid-bis(2-hydroxyethyl)ammonium]", 8),
    ("Cc1cc(Cl)ccc1OCC(=O)[O-].[K+] [MCPA-potassium]", 9),
]

Record COc1c(Cl)ccc(Cl)c1C(=O)[O-].[Na+] [dicamba-sodium] . Reported pH value in water: 7

FYI, the data here is from patent US10011552B2.
